Assay Procedure: in vitro
Condition Label: human, hepatocytes
Parameter: half-life. Scope: all listed entries.
Parameter Measured: half-life (h)

Smiles Representation: Cc1cccc(CN(C2CCOCC2)[C@H]2CCNC2)c1Cl
Modifier: =
Measured Result: 1.18
--
Smiles Representation: c1ccc(-c2ccccc2CN(C2CCOCC2)[C@H]2CCNC2)cc1
Modifier: =
Measured Result: 1.38
--
Smiles Representation: Cc1c(Cl)cccc1CN(C1CCOCC1)[C@H]1CCNC1
Modifier: =
Measured Result: 1.73
--
Smiles Representation: Cc1c(CN(C2CCOCC2)[C@H]2CCNC2)cccc1C(F)(F)F
Modifier: >
Measured Result: 4

---

Assay Procedure: in vitro
Condition Label: human, liver microsomes

Smiles Representation: Cc1cccc(CN(Cc2ccccn2)[C@H]2CCNC2)c1C
half-life: 0.233 h

Smiles Representation: Fc1cccc(CN(C2CCOCC2)[C@H]2CCNC2)c1C(F)(F)F
half-life: > 2 h

Smiles Representation: FC(F)(F)c1ccccc1CN(C1CCOCC1)[C@H]1CCNC1
half-life: > 2 h

Smiles Representation: Cc1cccc(CN(C2CCOCC2)[C@@H]2CCNC2)c1C
half-life: > 2 h

Smiles Representation: Cc1cccc(CN(C2CCOCC2)[C@H]2CCNC2)c1Cl
half-life: > 2 h

Smiles Representation: Cc1ccccc1CN(C1CCOCC1)[C@H]1CCNC1
half-life: > 2 h

Smiles Representation: Cc1cccc(CN(C2CCOCC2)[C@H]2CCNC2)c1C
half-life: > 2 h

Smiles Representation: Clc1cccc(CN(Cc2ccccn2)[C@H]2CCNC2)c1Cl
half-life: 1.02 h

Smiles Representation: COc1cccc(CN(C2CCOCC2)[C@H]2CCNC2)c1C
half-life: 1.57 h

Smiles Representation: Cc1cccc(CN(Cc2ccccn2)[C@@H]2CCNC2)c1C
half-life: 0.4 h

Smiles Representation: Clc1cccc(CN(CC2CC2)[C@@H]2CCNC2)c1Cl
half-life: > 2 h

Smiles Representation: Clc1cccc(CN(CC2CC2)[C@H]2CCNC2)c1Cl
half-life: > 2 h

Smiles Representation: c1ccc(-c2ccccc2CN(C2CCOCC2)[C@H]2CCNC2)cc1
half-life: > 2 h

Smiles Representation: Cc1c(Cl)cccc1CN(C1CCOCC1)[C@H]1CCNC1
half-life: > 2 h

Smiles Representation: Cc1c(CN(C2CCOCC2)[C@H]2CCNC2)cccc1C(F)(F)F
half-life: > 2 h
